System: MDA-MB-435
Assay comment: NCI tumour cell line growth inhibition, 48 h
Below, each entry is listed with its recorded log10 of TGI.
// units: µM (pre-log); metric: TGI; scale: log10

Example entries and their recorded answers appear below.
{"columns": ["Molecule", "Tested target", "log10 of TGI"],
 "data": [
  ["C[C@H]1C[C@H](C)c2ccccc2N(C)C1=Nc1ccccc1", "MDA-MB-435", 1.72],
  ["c1cc(OCCN2CCCCC2)ccc1CNc1ccc2nc(CCC3CCCCC3)[nH]c2c1", "MDA-MB-435", 0.49],
  ["C/C(=N/O)c1cccc(Nc2nc3ccc(Cl)cc3c3[nH]c4ccccc4c23)c1", "MDA-MB-435", 0.60],
  ["c1cn2cc(-c3ccc4ncn(C5CCCCC5)c4c3)nc(-c3ccc4c(c3)ncn4C3CCCCC3)c2n1", "MDA-MB-435", 0.55]
]}

Q. What value of log10 of TGI has been recorded for this entry: COc1ccc2c(c1)N=C1CSC(c3cccc(Br)c3)N1C2 (stereo not given)
A. 1.54
